Items are presented alongside their recorded z-score.
assay: P. aeruginosa biofilm formation inhibitors, primary screen, PAO1 strain, BacTiter-Glo luminescence, LB-PBS (AID 1144); conditions: 12 h, higher = more signal
The source made the active and inactive calls. The rule behind the calls is not given here.

| COMPOUND | z-score |
| --- | --- |
| CCC[C@@H]1C[C@@]1(CCC)[C@@H](NC(=O)c1ccccc1)c1cccc(Cl)c1 | 0.0208 (inactive) |
| C=CCN1C(=O)[C@]2(O[C@H](CCn3cc([C@H](O)c4ccccc4)nn3)[C@@H]([Si](C)(C)c3ccc(OC)cc3)[C@@H]2C)c2cc(N3CCC3=O)ccc21 | -0.549 (inactive) |
| C=C(CCCC)/C(=C/C[C@@H](OC(C)=O)c1ccc(OCCO)cc1)c1cnc2ccccc2c1 | -1.02 (inactive) |
| C=C[C@H](CO[Si](CC)(CC)CC)N(Cc1ccc(OC(C)=O)c(OC)c1)S(=O)(=O)c1ccc(Br)cc1 | 0.451 (inactive) |
| C=CC1(C(=O)OC)CC=C(C(=O)OC)CC1 (stereo not drawn) | 0.132 (inactive) |
| Cc1ccc(S[C@]2(C(=O)NCCCN(C)C)CC(=O)N(Cc3cc(C(F)(F)F)cc(C(F)(F)F)c3)[C@@H]2c2ccc(CO)cc2I)cc1 | 0.463 (inactive) |
| COc1cc(NN2C(C(O)c3ccco3)C=CC3C(=O)N(c4ccccc4)C(=O)C32)cc(OC)c1OC (stereo not drawn) | -0.225 (inactive) |
| O[C@@H](Cc1ccccc1)[C@H]1C2C=CCCC=C2CN1Cc1cccc(Cl)c1 (stereo partly drawn) | -0.829 (inactive) |

FYI, the data here is from PubChem BioAssay.
